Cited source: the RNAGym collection of RNA variant scans (doi:10.1021/acssynbio.7b00057)

B1: Pistol ribozyme (parent)
chain: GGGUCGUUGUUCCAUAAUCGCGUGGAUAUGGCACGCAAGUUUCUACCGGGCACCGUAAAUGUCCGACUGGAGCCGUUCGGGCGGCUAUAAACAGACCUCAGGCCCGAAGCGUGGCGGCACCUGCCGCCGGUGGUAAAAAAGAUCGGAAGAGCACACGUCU

# Variants of: B1
# test.description: aptazyme ON/OFF ratio, guanine; higher = stronger switching; co-transcriptional cleavage with and without guanine

>  <variant.descriptor>
U7C U8G G9U U10G U11C C12U C13A

>  <aptazyme ON/OFF ratio>
1.13

$$$$
>  <variant.descriptor>
U7A U8A U10C U11G C12G C13U

>  <aptazyme ON/OFF ratio>
1.19

$$$$
>  <variant.descriptor>
U7G G9U U10A U11A C12G C13G

>  <aptazyme ON/OFF ratio>
1.11

$$$$
>  <variant.descriptor>
U7A U8A G9C U11A C12U C13G

>  <aptazyme ON/OFF ratio>
1.14

$$$$
>  <variant.descriptor>
G9C U10C C12U C13G

>  <aptazyme ON/OFF ratio>
1.06

$$$$
>  <variant.descriptor>
U7C G9C U10G U11A C13U

>  <aptazyme ON/OFF ratio>
1.11

$$$$
>  <variant.descriptor>
U7G U8C G9A U10G U11C C12G C13G

>  <aptazyme ON/OFF ratio>
1.02

$$$$
>  <variant.descriptor>
U7A U8C G9C U10A U11C C12G C13G

>  <aptazyme ON/OFF ratio>
1.27

$$$$
>  <variant.descriptor>
U7G U8A U10A C13A

>  <aptazyme ON/OFF ratio>
1.2

$$$$
>  <variant.descriptor>
U7A U8A G9A U11C C12G C13G

>  <aptazyme ON/OFF ratio>
1.14

$$$$
>  <variant.descriptor>
U7C U8C U10A C12A C13A

>  <aptazyme ON/OFF ratio>
1.05

$$$$
>  <variant.descriptor>
U8C U10G U11C C12G C13U

>  <aptazyme ON/OFF ratio>
1.32

$$$$
>  <variant.descriptor>
U7A U8C G9U C13G

>  <aptazyme ON/OFF ratio>
1.03

$$$$
>  <variant.descriptor>
U7C G9A U10C U11C C12A

>  <aptazyme ON/OFF ratio>
1.34

$$$$
>  <variant.descriptor>
U7G U8A G9A U11C C12U C13U

>  <aptazyme ON/OFF ratio>
1.17

$$$$
>  <variant.descriptor>
U7C U8G G9C U10C U11A C12U C13U

>  <aptazyme ON/OFF ratio>
1.08

$$$$
>  <variant.descriptor>
U8C G9A U11A C12A C13G

>  <aptazyme ON/OFF ratio>
1.13

$$$$
>  <variant.descriptor>
U7G U8C G9A U10A C12A C13G

>  <aptazyme ON/OFF ratio>
1.13

$$$$
>  <variant.descriptor>
U7C G9A U10G U11G C12G C13U

>  <aptazyme ON/OFF ratio>
1.07

$$$$
>  <variant.descriptor>
U7C U8C G9C U10G U11A C12A C13U

>  <aptazyme ON/OFF ratio>
1.11

$$$$
>  <variant.descriptor>
U7A G9A U10C C12G C13A

>  <aptazyme ON/OFF ratio>
1.15

$$$$
>  <variant.descriptor>
U7G U8C U10G U11A C12G

>  <aptazyme ON/OFF ratio>
1.13

$$$$
>  <variant.descriptor>
U7C G9A U10C U11A C13A

>  <aptazyme ON/OFF ratio>
1.18

$$$$
>  <variant.descriptor>
U7G U8A G9A U10A U11C C12U C13G

>  <aptazyme ON/OFF ratio>
1.1

$$$$
>  <variant.descriptor>
U7G U8C G9U U10A U11A C12A C13U

>  <aptazyme ON/OFF ratio>
1.32

$$$$
>  <variant.descriptor>
U7G G9U U10A U11G C12G

>  <aptazyme ON/OFF ratio>
1.26

$$$$
>  <variant.descriptor>
U7C C12A C13U

>  <aptazyme ON/OFF ratio>
1.19

$$$$
>  <variant.descriptor>
U7C U8A G9A U10G C12U C13A

>  <aptazyme ON/OFF ratio>
1.26

$$$$
>  <variant.descriptor>
U7C G9A U11A C12U C13A

>  <aptazyme ON/OFF ratio>
1.07

$$$$
>  <variant.descriptor>
U7C U8A U10G U11G C13U

>  <aptazyme ON/OFF ratio>
1.32

$$$$
>  <variant.descriptor>
U7G G9A U10G U11A

>  <aptazyme ON/OFF ratio>
1.05

$$$$
>  <variant.descriptor>
U7C G9U U10A U11G C12G C13U

>  <aptazyme ON/OFF ratio>
1.16

$$$$
>  <variant.descriptor>
U7G U8C G9A U10G U11A C12G C13G

>  <aptazyme ON/OFF ratio>
1.24

$$$$
>  <variant.descriptor>
G9C U10G U11G C12A

>  <aptazyme ON/OFF ratio>
1.18

$$$$
>  <variant.descriptor>
U7C U8A U10G U11C C12A C13G

>  <aptazyme ON/OFF ratio>
1.11

$$$$
>  <variant.descriptor>
U7C U8C G9A U10G U11C C13G

>  <aptazyme ON/OFF ratio>
1.01

$$$$
>  <variant.descriptor>
U7G U8C G9U U11A C12A C13U

>  <aptazyme ON/OFF ratio>
1.5

$$$$
>  <variant.descriptor>
U7A U8A G9A U10A U11A C12G C13G

>  <aptazyme ON/OFF ratio>
1.28

$$$$
>  <variant.descriptor>
U8A G9U U11G C13U

>  <aptazyme ON/OFF ratio>
1.24

$$$$
>  <variant.descriptor>
U7C G9A U11G C12U

>  <aptazyme ON/OFF ratio>
1.27

$$$$
>  <variant.descriptor>
U7A U8G G9U U10A U11C

>  <aptazyme ON/OFF ratio>
1.06

$$$$
>  <variant.descriptor>
U7G G9C U10C C12G C13G

>  <aptazyme ON/OFF ratio>
1.09

$$$$
>  <variant.descriptor>
U7G U8A G9U U10A U11G C12U C13U

>  <aptazyme ON/OFF ratio>
1.02

$$$$
>  <variant.descriptor>
U8C G9C U10C U11G C12G

>  <aptazyme ON/OFF ratio>
1.11

$$$$
>  <variant.descriptor>
U8C G9C C13A

>  <aptazyme ON/OFF ratio>
1.05

$$$$
>  <variant.descriptor>
U7A G9C U10A U11G C12A C13U

>  <aptazyme ON/OFF ratio>
1.05

$$$$
>  <variant.descriptor>
G9C U10A U11C

>  <aptazyme ON/OFF ratio>
1.06

$$$$
>  <variant.descriptor>
U7G G9C U11C C13G

>  <aptazyme ON/OFF ratio>
1.06

$$$$
>  <variant.descriptor>
U7A U10C U11C C12G C13A

>  <aptazyme ON/OFF ratio>
1.04

$$$$
>  <variant.descriptor>
U7C U8G G9C U11C C13G

>  <aptazyme ON/OFF ratio>
1.05

$$$$
>  <variant.descriptor>
U8G G9C U10G U11A C12U C13G

>  <aptazyme ON/OFF ratio>
1.15

$$$$
>  <variant.descriptor>
U8G G9A U10A C12U C13U

>  <aptazyme ON/OFF ratio>
1.29

$$$$
>  <variant.descriptor>
U7G G9U U10A U11A C12G C13A

>  <aptazyme ON/OFF ratio>
1.13

$$$$
>  <variant.descriptor>
U7G U8G G9C C12U C13U

>  <aptazyme ON/OFF ratio>
1.12

$$$$
>  <variant.descriptor>
U7A U8A U10A U11G C12A C13A

>  <aptazyme ON/OFF ratio>
1.19

$$$$
>  <variant.descriptor>
U7G U8C G9C U10A U11A C12A C13U

>  <aptazyme ON/OFF ratio>
1.11

$$$$
>  <variant.descriptor>
U7C U10C U11C

>  <aptazyme ON/OFF ratio>
1.74

$$$$
>  <variant.descriptor>
U7C U8C G9C U10A U11G C12U

>  <aptazyme ON/OFF ratio>
1.05

$$$$
>  <variant.descriptor>
U7A U8G G9A U11G C12G C13G

>  <aptazyme ON/OFF ratio>
1.08

$$$$
>  <variant.descriptor>
U7G U8C U10G C12G C13U

>  <aptazyme ON/OFF ratio>
1.08

$$$$
>  <variant.descriptor>
U7A U8A C12A C13G

>  <aptazyme ON/OFF ratio>
1.12

$$$$
>  <variant.descriptor>
U7A U8A G9C U11A C13G

>  <aptazyme ON/OFF ratio>
1.06

$$$$
>  <variant.descriptor>
U7C U8A G9U U11C C12G C13U

>  <aptazyme ON/OFF ratio>
1.16

$$$$
>  <variant.descriptor>
U7C U8G U10G U11G C12U

>  <aptazyme ON/OFF ratio>
1.21

$$$$
>  <variant.descriptor>
U7G U8C G9A U10A U11A C12U C13G

>  <aptazyme ON/OFF ratio>
1.15

$$$$
>  <variant.descriptor>
U8C G9A U10A U11C C12U C13G

>  <aptazyme ON/OFF ratio>
1.14

$$$$
>  <variant.descriptor>
U8C G9U U10G U11A C12G C13U

>  <aptazyme ON/OFF ratio>
1.12

$$$$
>  <variant.descriptor>
U7A U8C G9C U10C U11A C12A C13U

>  <aptazyme ON/OFF ratio>
1.03

$$$$
>  <variant.descriptor>
U7C U8C G9C U10G

>  <aptazyme ON/OFF ratio>
1.61

$$$$
>  <variant.descriptor>
U7C U8C U10G U11A C13A

>  <aptazyme ON/OFF ratio>
1.21

$$$$
>  <variant.descriptor>
U7G U8A U10G U11G C12U C13A

>  <aptazyme ON/OFF ratio>
1.44

$$$$
>  <variant.descriptor>
U7A U8A G9U U10C U11C

>  <aptazyme ON/OFF ratio>
1.04

$$$$
>  <variant.descriptor>
U7G G9U U10C U11A C12U C13U

>  <aptazyme ON/OFF ratio>
1.33

$$$$
>  <variant.descriptor>
U8G G9C U11C C12A C13A

>  <aptazyme ON/OFF ratio>
1.04

$$$$
>  <variant.descriptor>
G9U U10G U11G

>  <aptazyme ON/OFF ratio>
1.55

$$$$
>  <variant.descriptor>
U11C C12G C13U

>  <aptazyme ON/OFF ratio>
1.33

$$$$
>  <variant.descriptor>
G9A U10G U11A C12A

>  <aptazyme ON/OFF ratio>
1.17

$$$$
>  <variant.descriptor>
U7A U8A G9C U11G C12U C13A

>  <aptazyme ON/OFF ratio>
1.37

$$$$
>  <variant.descriptor>
U8G G9U U10G U11G C13U

>  <aptazyme ON/OFF ratio>
1.02

$$$$
>  <variant.descriptor>
U7G U8G U10G U11A C12A C13U

>  <aptazyme ON/OFF ratio>
1.23

$$$$
>  <variant.descriptor>
U8G G9U U11A C13U

>  <aptazyme ON/OFF ratio>
1.25

$$$$
>  <variant.descriptor>
U7A U8C U11A C12U C13G

>  <aptazyme ON/OFF ratio>
1.24

$$$$
>  <variant.descriptor>
U7A G9C U10C C12A C13U

>  <aptazyme ON/OFF ratio>
1.04

$$$$
>  <variant.descriptor>
U7A U8C G9A U10G U11A C12U

>  <aptazyme ON/OFF ratio>
1.04

$$$$
>  <variant.descriptor>
U7C U8A U10G U11G C13A

>  <aptazyme ON/OFF ratio>
1.23

$$$$
>  <variant.descriptor>
U7G G9C U10G C12G C13G

>  <aptazyme ON/OFF ratio>
1.18

$$$$
>  <variant.descriptor>
U7C U10G U11A C12A C13G

>  <aptazyme ON/OFF ratio>
1.17

$$$$
>  <variant.descriptor>
U7C U8A G9A C12G C13U

>  <aptazyme ON/OFF ratio>
1.17

$$$$
>  <variant.descriptor>
U7C U8C U10C C12U C13A

>  <aptazyme ON/OFF ratio>
1.35

$$$$
>  <variant.descriptor>
U7C U8A G9A U11A C13U

>  <aptazyme ON/OFF ratio>
1.14

$$$$
>  <variant.descriptor>
U7G U8A G9A U10G U11G C13A

>  <aptazyme ON/OFF ratio>
1.29

$$$$
